method: Plasma concentration in C57BL/6 mouse at 5 mg/kg, ip administered as single dose measured after 20 mins by LC/MS analysis based RACE assay
Assay type: ADME, organism-based
Design: dose 5 mg/kg, route intraperitoneal
endpoint name: concentration at 20 min
Kindly format the answer as number then unit.

Query :: Which concentration at 20 min is listed for `CN1CCN(C)/C(=N/c2ccc([N+](=O)[O-])cc2C(=O)Nc2ccccc2)C1` ?
Result :: 1450 nM

###

Hi there, I'd appreciate the recorded EC50 for every entry that follows.
Test system: Venezuelan equine encephalitis virus
method: Antiviral activity against Venezuelan equine encephalitis virus TC83 infected in Vero 76 cells assessed as reduction in virus-induced cytopathic effect after 2 days by Celltiter-Glo reagent based assay
Assay type: functional, organism-based
experimental conditions: TC83, Vero 76, 48 h
One number for each entry, in nM.

Here's what some known entries look like.
1) CCN1CCN(C)C/C1=N\c1ccc([N+](=O)[O-])cc1C(=O)Nc1ccccc1 : 50
2) CCN1CCN(Cc2nc3ccc([N+](=O)[O-])cc3c(=O)n2-c2cccc(F)c2)CC1 : 400

Give EC50 for each listed item.
1. CN1CCN(C)/C(=N/c2ccc(C#N)cc2C(=O)Nc2cccc(F)c2)C1
2. CN1CCN(C)/C(=N/c2ccc(C#N)cc2C(=O)Nc2ccccc2)C1
3. CN1CCN(C)/C(=N/c2ccc([N+](=O)[O-])cc2C(=O)Nc2ccccc2)C1
4. CN1CCN(C)/C(=N/c2ccc(C#N)cc2C(=O)Nc2ccccc2F)C1

Result ::
1. 800
2. 400
3. 30
4. 3700

Below is a list of compounds. For each, state its recorded EC50.
1. O=c1c2cc([N+](=O)[O-])ccc2nc(CN2CCNCC2)n1-c1ccsc1
2. CN1CCN(C)/C(=N/c2cc(Cl)c(C#N)cc2C(=O)Nc2ccccc2)C1

Result ::
1: 1400; 2: 100

###

Kindly supply the reported selectivity ratio values for the records listed here.
method: Selectivity index, ratio of CC50 for african green monkey Vero 76 cells to EC50 for Venezuelan equine encephalitis virus TC83
Assay type: toxicity, cell-based
experimental conditions: read-out: Ratio CC50/EC50

1. O=c1c2cc([N+](=O)[O-])ccc2nc(C2CCNCC2)n1-c1ccccc1 : > 13.9
2. CNCCCN(C)Cc1nc2ccc([N+](=O)[O-])cc2c(=O)n1-c1ccccc1 : > 83.3
3. CN1CCN(Cc2nc3ccc([N+](=O)[O-])cc3c(=O)n2-c2ccccc2F)CC1 : > 62.5

// for each molecule in input: emit selectivity ratio
1. CCN1CCN(Cc2nc3ccc([N+](=O)[O-])cc3c(=O)n2-c2ccccc2)CC1
2. CN1CCN(C)/C(=N/c2ccc(C#N)cc2C(=O)Nc2ccccc2)C1
3. COc1ccc(NC(=O)c2cc([N+](=O)[O-])ccc2/N=C2\CN(C)CCN2C)cc1
4. O=c1c2cc([N+](=O)[O-])ccc2nc(CN2CCNCC2)n1-c1ccsc1
5. COc1ccccc1NC(=O)c1cc([N+](=O)[O-])ccc1/N=C1\CN(C)CCN1C
6. CCN1CCN(C)C/C1=N\c1ccc([N+](=O)[O-])cc1C(=O)Nc1ccccc1
7. CN1CCN(C)/C(=N/c2ccc([N+](=O)[O-])cc2C(=O)Nc2ccccc2F)C1
8. O=c1c2cc([N+](=O)[O-])ccc2nc(CN2CCNCC2)n1-c1ccccc1F

Result ::
1: > 167; 2: > 125; 3: > 1250; 4: > 35.7; 5: > 1.5; 6: > 1000; 7: > 250; 8: > 250

Return reported selectivity ratio values for all items listed beneath this line.
1. O=c1c2cc([N+](=O)[O-])ccc2nc(CN2CCCNCC2)n1-c1ccccc1
2. COC(=O)c1ccc(/N=C2\CN(C)CCN2C)c(C(=O)Nc2ccccc2)c1
3. CN1CCN(C)/C(=N/c2cc([N+](=O)[O-])ccc2C(=O)Nc2ccccc2)C1
4. CN1CCN(C)/C(=N/c2cc(F)c(F)cc2C(=O)Nc2ccccc2)C1
5. CN1CCN(C)/C(=N/c2cc(Cl)c(C#N)cc2C(=O)Nc2ccccc2)C1
6. CN1CCN(C)/C(=N/c2ccc([N+](=O)[O-])cc2C(=O)Nc2ccc(F)cc2)C1
7. CCN1CCN(Cc2nc3ccc(I)cc3c(=O)n2-c2ccccc2)CC1
8. O=c1c2cc([N+](=O)[O-])ccc2nc(CN2CCCNC2)n1-c1ccccc1

Result ::
1: > 55.6; 2: > 25; 3: > 6; 4: > 11.4; 5: > 500; 6: > 556; 7: > 2.9; 8: > 45.5

Each of the following entries comes with a recorded value; kindly state selectivity ratio for each.
1. COc1cccc(NC(=O)c2cc([N+](=O)[O-])ccc2/N=C2\CN(C)CCN2C)c1
2. O=c1c2cc([N+](=O)[O-])ccc2nc(CN2CCCCC2)n1-c1ccccc1F
3. O=c1c2cc([N+](=O)[O-])ccc2nc(CN2CCOCC2)n1-c1ccccc1F
4. CN1CCN(C)/C(=N/c2ccc(C#N)cc2C(=O)Nc2ccccc2F)C1
5. CN1CCN(C)/C(=N/c2ccc([N+](=O)[O-])cc2C(=O)Nc2cccc(F)c2)C1

Result ::
1: > 6.2; 2: > 10.6; 3: > 5.7; 4: > 13.5; 5: > 500

Look at each molecule and report its selectivity ratio.
1. CN1CCN(C)/C(=N/c2cc(F)c(C#N)cc2C(=O)Nc2ccccc2)C1
2. CN1CCN(C)/C(=N/c2ccc(C#N)cc2C(=O)Nc2cccc(F)c2)C1
3. COc1ccc(-n2c(CN3CCNCC3)nc3ccc([N+](=O)[O-])cc3c2=O)cc1
4. CCN1CCN(Cc2nc3ccc(C#N)cc3c(=O)n2-c2ccccc2)CC1
5. O=c1c2cc([N+](=O)[O-])ccc2nc(CN2CCNCC2)n1-c1ccccc1

Result ::
1. > 125
2. > 62.5
3. > 250
4. > 45.5
5. > 250

###

What EC50 was measured for each of the following?
Test system: Venezuelan equine encephalitis virus
method: Antiviral activity against Venezuelan equine encephalitis virus TC83 infected in Vero 76 cells assessed as reduction in virus-induced cytopathic effect after 2 days by Celltiter-Glo reagent based assay
Type: functional, organism-based
experimental conditions: TC83, Vero 76, 48 h
One number for each entry, in µM.

Before answering, review these 3 worked examples.
1) CNCCCN(C)Cc1nc2ccc([N+](=O)[O-])cc2c(=O)n1-c1ccccc1 : 0.6
2) CCN1CCN(Cc2nc3ccc(I)cc3c(=O)n2-c2ccccc2)CC1 : 17.1
3) O=c1c2cc([N+](=O)[O-])ccc2nc(CN2CCCNC2)n1-c1ccccc1 : 1.1

From here, focus on the item given below.
Query :: EC50 for `CN1CCN(C)/C(=N/c2ccc([N+](=O)[O-])cc2C(=O)Nc2cccc(F)c2)C1` ?
Result :: 0.1
